experiment: Transport of geniposide across the HNEC monolayer; type: in vitro ADME, human; details: human, geniposide 100 µg·mL^−1; read-out: ER±SD(B→A/A→B)
RECORDED_ENDPOINT: efflux ratio at 180 min, 100 µg·mL^−1
Number only, no unit.

Prompt line: Determine from records and report efflux ratio at 180 min, 100 µg·mL^−1 for COC(=O)C1=CO[C@@H](O[C@@H]2O[C@H](CO)[C@@H](O)[C@H](O)[C@H]2O)[C@@H]2C(CO)=CC[C@H]12 [geniposide, Geniposide]
Response line: 0.951

* * *

test: Transport of geniposide across the HNEC monolayer; type: in vitro ADME, human; settings: human, geniposide 50 µg·mL^−1 alone (control); read-out: ER±SD(B→A/A→B)
RECORDED_ENDPOINT: efflux ratio at 180 min, 50 µg·mL^−1
Number only, no unit.

Prompt line: Determine from records and report efflux ratio at 180 min, 50 µg·mL^−1 for COC(=O)C1=CO[C@@H](O[C@@H]2O[C@H](CO)[C@@H](O)[C@H](O)[C@H]2O)[C@@H]2C(CO)=CC[C@H]12 [geniposide, Geniposide]
Response line: 1.03

meta.source: paper PMC4081582
